tested on: MOLT-4 leukemia; experiment: NCI tumour cell line growth inhibition, 48 h
recorded_metric: TGI

Examples with answers:
| compound | TGI |
| --- | --- |
| C[N+]1(Cc2ccc(Cl)c(Cl)c2)CCCC1C1CCCN(Cc2ccc(Cl)c(Cl)c2)C1 (stereo not drawn) | > 100 µM |
| O=[N+]([O-])c1cc2c(c([N+](=O)[O-])c1)NCc1ccccc1O2 | > 100 µM |
| COc1ccc2c(c1)-c1[nH]c3ccc(OC)cc3c1CC2 | 54.4 µM |

Notebook: `O=Cc1ccccc1B(O)O` , TGI read as 26.1 µM

Per the record, COc1cc(/C=N/NC(=O)c2cnn3c2NC(c2ccccc2)C3)ccc1Oc1ccccc1 (stereo not drawn) has TGI of 20.4 µM
